- test_target: hK-RasG12C - hSOS1 interaction (Homo sapiens, UniProt Q07889)
- Construct: hSOS1 (amino acid 564-1049); made in house; host or cells: E. coli BL21 (DE3)
- method_summary: Biochemical Assay 1: hK-RasG12C interaction assay with hSOS1 (HTRF)
- Format: binding
- reported_conditions: values expressed as IC50
Consider the following molecules and their measured pIC50 readings.
pIC50 is defined as minus the log10 of a concentration measured in mol/L.

Reference set, count: 2
CC(=O)NCCOc1cc2c(N[C@H](C)c3cccc(Br)c3)nc(C)nc2cn1 [Example 62]
6.54
Cc1nc(N[C@H](C)c2cccc(Br)c2)c2cc(Oc3cccc(C4=NCCN4C)c3)ncc2n1 [Example 41]
5.80

Now examine the next entry.
(Q) Give the reported pIC50 for this molecule. COc1cc2c(N[C@H](C)c3cccc(Br)c3)nc(C)nc2cn1 [Example 57]
(A) 5.71

---

- test_target: hSOS1 (hSOS1-mediated nucleotide exchange of hK-RasG12C) (Homo sapiens, UniProt Q07889)
pIC50: −log10 of the molar value.
Output 1 (yes) for pIC50 not less than 7; output 0 (no) otherwise.

Reference set (8 entries):
Cc1nc(NC(C)c2ccc(-c3ccccc3CN(C)C)s2)c2cc(OC3CCS(=O)(=O)CC3)ncc2n1 (centres unmarked) [Example 67]
1 (yes)
Cc1nc(NC(C)c2ccc(-c3ccccc3CN(C)C)s2)c2cc(N3CCNC(=O)C3)ncc2n1 (centres unmarked) [Example 50]
1 (yes)
Cc1nc(N[C@H](C)c2cccc(Br)c2)c2nc(N3CCOCC3)ccc2n1 [Example 27]
0 (no)
Cc1nc(NC(C)c2ccc(-c3ccccc3CN(C)C)s2)c2cc(C3(O)CCN(C)C3=O)ncc2n1 (mixture of isomers) [Example 85]
0 (no)
COc1cc2c(NC(C)c3cccc4c3cnn4C)nc(C)nc2cn1 (centres unmarked) [Example 14]
0 (no)
CCOc1cc2c(NC(C)c3ccc(-c4ccccc4CN(C)C)s3)nc(C)nc2cn1 (centres unmarked) [Example 63]
1 (yes)
Cc1nc(N[C@H](C)c2cccc(Br)c2)c2cc(NC3CCOCC3)ncc2n1 [Example 46]
0 (no)
Cc1nc(N[C@H](C)c2cccc(Br)c2)c2cc(OCCCN(C)C)ncc2n1 [Example 70]
0 (no)

Now look at this entry.
(Q) Identify whether the reported pIC50 of the following molecule is 7 or greater: CNCc1ccccc1-c1ccc(C(C)Nc2nc(C)nc3cnc(Oc4ccc(N5CCCC5=O)cc4)cc23)s1 (centres unmarked) [Example 38]
(A) 0 (no)

---

Consider the following compounds and their measured pIC50 readings.
- test_target: hSOS1 (hSOS1-mediated loading of hK-RasG12C-GDP) (Homo sapiens)
- Sequence (Q07889 with tags, fused parts or gaps): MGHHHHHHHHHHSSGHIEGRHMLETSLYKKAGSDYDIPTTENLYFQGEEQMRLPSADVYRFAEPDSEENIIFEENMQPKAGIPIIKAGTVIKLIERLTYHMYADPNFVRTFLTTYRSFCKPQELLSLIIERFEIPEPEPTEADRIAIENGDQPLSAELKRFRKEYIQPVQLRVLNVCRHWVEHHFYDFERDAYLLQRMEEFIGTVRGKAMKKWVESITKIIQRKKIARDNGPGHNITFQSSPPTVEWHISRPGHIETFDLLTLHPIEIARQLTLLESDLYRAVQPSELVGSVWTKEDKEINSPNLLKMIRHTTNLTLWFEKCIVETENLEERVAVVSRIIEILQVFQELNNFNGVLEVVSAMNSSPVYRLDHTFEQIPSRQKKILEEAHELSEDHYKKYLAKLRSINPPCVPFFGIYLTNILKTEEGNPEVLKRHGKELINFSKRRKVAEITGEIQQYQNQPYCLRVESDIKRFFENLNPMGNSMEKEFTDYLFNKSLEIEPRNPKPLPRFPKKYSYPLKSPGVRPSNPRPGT
pIC50: −log10 of the molar value.

Reference set, count: 3
COc1ccc2nc(C)nc(N[C@H](C)c3cccc(Br)c3)c2n1
< 4.70
Cc1nc(N[C@H](C)c2ccc(F)cc2)c2cc(F)ncc2n1
< 4.70
Cc1nc(N[C@H](C)c2cccc(Br)c2)c2nc(OCc3ccccc3)ncc2n1
≤ 4.40

(Q) Give the reported pIC50 for this compound. Cc1nc(N[C@H](C)c2cccc(Br)c2)c2cc(Oc3cccc(O)c3)ncc2n1
(A) < 4.70
